The reported numbers originate from patent US10738028B2.

Test system: Escherichia coli (including ESBLs, non-ESBLs)
Test: MIC, two-fold agar dilution (CLSI), clinical isolates
Assay type: cell-based
Conditions: clinical isolate ECO+ 15-4
PROPERTY_LABEL: Anti-bacterial activity (MIC), strain ECO+ 15-4 (µg/mL)
Please reply with the bare figure in µg/mL and do not write the unit itself.

Tested on Escherichia coli (including ESBLs, non-ESBLs): CCCC[C@H](CC(=O)NO)C(=O)N1CC2(CC2)C[C@H]1C(=O)Nc1cccnn1 . Observed Anti-bacterial activity (MIC), strain ECO+ 15-4: 32

Tested on Escherichia coli (including ESBLs, non-ESBLs): CCCC[C@H](CC(=O)NO)C(=O)N1CC2(CC2)C[C@H]1C(=O)Nc1cnccn1 . Observed Anti-bacterial activity (MIC), strain ECO+ 15-4: 1

Tested on Escherichia coli (including ESBLs, non-ESBLs): O=CN(O)C[C@@H](CC1CCCC1)C(=O)N1CC2(CC2)C[C@H]1c1nc2ccccc2[nH]1 . Observed Anti-bacterial activity (MIC), strain ECO+ 15-4: 16

* * *

Assign MIC (anti-bacterial activity) to each entry below.
Tested on: Enterococcus faecalis (EFA)
Test: MIC, two-fold agar dilution (CLSI), clinical isolates
Type: cell-based
Conditions: strain EFA 15-9
Please reply with the bare figure in µg/mL and do not write the unit itself.

Tested on Enterococcus faecalis (EFA): O=CN(O)C[C@@H](CC1CCCC1)C(=O)N1CC2(CC2)C[C@H]1C(=O)Nc1cnccn1 . Observed MIC (anti-bacterial activity): 2

Tested on Enterococcus faecalis (EFA): COC(=O)c1sccc1NC(=O)[C@@H]1CC2(CC2)CN1C(=O)[C@H](CC1CCCC1)CN(O)C=O . Observed MIC (anti-bacterial activity): 4

Tested on Enterococcus faecalis (EFA): Cc1cc(NC(=O)[C@@H]2CC3(CC3)CN2C(=O)[C@H](CC2CCCC2)CN(O)C=O)no1 . Observed MIC (anti-bacterial activity): 4

Tested on Enterococcus faecalis (EFA): CC(C)(C)c1cc(NC(=O)[C@@H]2CC3(CC3)CN2C(=O)[C@H](CC2CCCC2)CN(O)C=O)no1 . Observed MIC (anti-bacterial activity): 4

Tested on Enterococcus faecalis (EFA): CCCC[C@H](CN(O)C=O)C(=O)N1CC2(CC2)C[C@H]1C(=O)Nc1nncs1 . Observed MIC (anti-bacterial activity): 32

Tested on Enterococcus faecalis (EFA): Cc1cnc(NC(=O)[C@@H]2CC3(CC3)CN2C(=O)[C@H](CC2CCCC2)CN(O)C=O)s1 . Observed MIC (anti-bacterial activity): 2

Tested on Enterococcus faecalis (EFA): O=CN(O)C[C@@H](CC1CCCC1)C(=O)N1CC2(CC2)C[C@H]1C(=O)Nc1ccc(N2CCOCC2)cc1 . Observed MIC (anti-bacterial activity): 2

* * *

Assign log10 of MIC (anti-bacterial activity) to each entry below.
Test system: methicillin-resistant Staphylococcus aureus (MRSA)
Experiment: MIC, two-fold agar dilution (CLSI), clinical isolates
Assay type: cell-based
Conditions: strain MRSA 15-4
Record value = log10 of MIC (anti-bacterial activity) given in µg/mL.

Tested on methicillin-resistant Staphylococcus aureus (MRSA): O=CN(O)C[C@@H](CC1CCCC1)C(=O)N1CC2(CC2)C[C@H]1C(=O)Nc1ncccc1F [Example 30] . Observed log10 of MIC (anti-bacterial activity): -0.30

Tested on methicillin-resistant Staphylococcus aureus (MRSA): CCCC[C@H](CN(O)C=O)C(=O)N1CC2(CC2)C[C@H]1C(=O)Nc1cnccn1 [Example 15] . Observed log10 of MIC (anti-bacterial activity): -0.60

Tested on methicillin-resistant Staphylococcus aureus (MRSA): O=CN(O)C[C@@H](CC1CCCC1)C(=O)N1CC2(CC2)C[C@H]1C(=O)Nc1cc[nH]n1 [Example 31] . Observed log10 of MIC (anti-bacterial activity): 0.30

Tested on methicillin-resistant Staphylococcus aureus (MRSA): CCCC[C@H](CN(O)C=O)C(=O)N1CC2(CC2)C[C@H]1C(=O)Nc1nncs1 [Example 23] . Observed log10 of MIC (anti-bacterial activity): 0.30

Tested on methicillin-resistant Staphylococcus aureus (MRSA): O=CN(O)C[C@@H](CC1CCCC1)C(=O)N1CC2(CC2)C[C@H]1C(=O)N1CCS(=O)(=O)CC1 [Example 35] . Observed log10 of MIC (anti-bacterial activity): 1.51

Tested on methicillin-resistant Staphylococcus aureus (MRSA): CC(C)(C)c1cc(NC(=O)[C@@H]2CC3(CC3)CN2C(=O)[C@H](CC2CCCC2)CN(O)C=O)no1 [Example 38] . Observed log10 of MIC (anti-bacterial activity): -0.60

Tested on methicillin-resistant Staphylococcus aureus (MRSA): CCCC[C@H](CN(O)C=O)C(=O)N1CC2(CC2)C[C@H]1C(=O)Nc1ccc(N2CCOCC2)cc1 [Example 14] . Observed log10 of MIC (anti-bacterial activity): 0.00

Tested on methicillin-resistant Staphylococcus aureus (MRSA): O=CN(O)C[C@@H](CC1CCCC1)C(=O)N1CC2(CC2)C[C@H]1C(=O)Nc1ncco1 [Example 36] . Observed log10 of MIC (anti-bacterial activity): 0.90

Tested on methicillin-resistant Staphylococcus aureus (MRSA): CCCC[C@H](CN(O)C=O)C(=O)N1CC2(CC2)C[C@H]1C(=O)Nc1cc(C)on1 [Example 21] . Observed log10 of MIC (anti-bacterial activity): -0.30

Tested on methicillin-resistant Staphylococcus aureus (MRSA): CCCC[C@H](CN(O)C=O)C(=O)N1CC2(CC2)C[C@H]1C(=O)Nc1ccno1 [Example 17] . Observed log10 of MIC (anti-bacterial activity): 0.00

Tested on methicillin-resistant Staphylococcus aureus (MRSA): O=CN(O)C[C@@H](CC1CCCC1)C(=O)N1CC2(CC2)C[C@H]1C(=O)Nc1ccc(N2CCOCC2)cc1 [Example 25] . Observed log10 of MIC (anti-bacterial activity): -0.60

Tested on methicillin-resistant Staphylococcus aureus (MRSA): Cc1cc(NC(=O)[C@@H]2CC3(CC3)CN2C(=O)[C@H](CC2CCCC2)CN(O)C=O)no1 [Example 39] . Observed log10 of MIC (anti-bacterial activity): 0.00

Tested on methicillin-resistant Staphylococcus aureus (MRSA): CCCC[C@H](CN(O)C=O)C(=O)N1CC2(CC2)C[C@H]1c1nc2ccccc2n1CCN(C)C [Example 24] . Observed log10 of MIC (anti-bacterial activity): 0.90

Tested on methicillin-resistant Staphylococcus aureus (MRSA): CCCC[C@H](CN(O)C=O)C(=O)N1CC2(CC2)C[C@H]1C(=O)Nc1nccs1 [Example 22] . Observed log10 of MIC (anti-bacterial activity): -0.60

Tested on methicillin-resistant Staphylococcus aureus (MRSA): COC(=O)c1sccc1NC(=O)[C@@H]1CC2(CC2)CN1C(=O)[C@H](CC1CCCC1)CN(O)C=O [Example 34] . Observed log10 of MIC (anti-bacterial activity): -0.30

Tested on methicillin-resistant Staphylococcus aureus (MRSA): CCCC[C@H](CN(O)C=O)C(=O)N1CC2(CC2)C[C@H]1C(=O)NC1CC1 [Example 18] . Observed log10 of MIC (anti-bacterial activity): 0.30

Tested on methicillin-resistant Staphylococcus aureus (MRSA): Cc1csc(NC(=O)[C@@H]2CC3(CC3)CN2C(=O)[C@H](CC2CCCC2)CN(O)C=O)n1 [Example 33] . Observed log10 of MIC (anti-bacterial activity): -1.22

Tested on methicillin-resistant Staphylococcus aureus (MRSA): O=CN(O)C[C@@H](CC1CCCC1)C(=O)N1CC2(CC2)C[C@H]1C(=O)Nc1cnccn1 [Example 26] . Observed log10 of MIC (anti-bacterial activity): -0.60

Tested on methicillin-resistant Staphylococcus aureus (MRSA): O=CN(O)C[C@@H](CC1CCCC1)C(=O)N1CC2(CC2)C[C@H]1C(=O)Nc1ccc(F)cn1 [Example 28] . Observed log10 of MIC (anti-bacterial activity): -0.90

Tested on methicillin-resistant Staphylococcus aureus (MRSA): O=CN(O)C[C@@H](CC1CCCC1)C(=O)N1CC2(CC2)C[C@H]1C(=O)NC1CC1 [Example 32] . Observed log10 of MIC (anti-bacterial activity): 0.00

Tested on methicillin-resistant Staphylococcus aureus (MRSA): O=CN(O)C[C@@H](CC1CCCC1)C(=O)N1CC2(CC2)C[C@H]1C(=O)Nc1ccncn1 [Example 27] . Observed log10 of MIC (anti-bacterial activity): -0.90

Tested on methicillin-resistant Staphylococcus aureus (MRSA): Cc1cnc(NC(=O)[C@@H]2CC3(CC3)CN2C(=O)[C@H](CC2CCCC2)CN(O)C=O)s1 [Example 29] . Observed log10 of MIC (anti-bacterial activity): -0.90

Tested on methicillin-resistant Staphylococcus aureus (MRSA): O=CN(O)C[C@@H](CC1CCCC1)C(=O)N1CC2(CC2)C[C@H]1C(=O)Nc1ccno1 [Example 37] . Observed log10 of MIC (anti-bacterial activity): -0.70

Tested on methicillin-resistant Staphylococcus aureus (MRSA): CCCC[C@H](CN(O)C=O)C(=O)N1CC2(CC2)C[C@H]1C(=O)Nc1nc(C)cs1 [Example 19] . Observed log10 of MIC (anti-bacterial activity): -0.60

Tested on methicillin-resistant Staphylococcus aureus (MRSA): CCCC[C@H](CN(O)C=O)C(=O)N1CC2(CC2)C[C@H]1C(=O)Nc1ccncn1 [Example 16] . Observed log10 of MIC (anti-bacterial activity): 0.00
